Exercise: state measured pIC50 for each of the molecules provided.
# subject_of_test: CDK4/Cyclin D1 (Homo sapiens)
# Sequence (P11802 whole entry): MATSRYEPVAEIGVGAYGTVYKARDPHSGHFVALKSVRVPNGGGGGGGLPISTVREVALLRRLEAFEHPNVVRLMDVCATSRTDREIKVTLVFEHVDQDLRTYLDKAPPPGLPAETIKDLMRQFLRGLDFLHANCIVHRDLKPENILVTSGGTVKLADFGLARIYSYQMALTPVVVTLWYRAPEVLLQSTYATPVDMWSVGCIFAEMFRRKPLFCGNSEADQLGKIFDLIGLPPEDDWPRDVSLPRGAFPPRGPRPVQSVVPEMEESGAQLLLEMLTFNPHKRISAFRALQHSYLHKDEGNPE
# Sequence (P24385 whole entry partner): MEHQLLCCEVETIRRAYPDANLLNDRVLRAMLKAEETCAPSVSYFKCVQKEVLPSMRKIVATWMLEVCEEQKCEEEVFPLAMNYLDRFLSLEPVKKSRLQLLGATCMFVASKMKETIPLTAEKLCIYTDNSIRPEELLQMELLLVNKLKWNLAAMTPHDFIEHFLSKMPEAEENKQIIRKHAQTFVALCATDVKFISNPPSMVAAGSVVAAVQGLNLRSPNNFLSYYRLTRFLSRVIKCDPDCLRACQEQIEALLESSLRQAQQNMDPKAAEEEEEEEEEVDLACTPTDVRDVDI
# assay_summary: NanoBRET live-cell target engagement, NanoLuc-CDK4/Cyclin D1 in HEK-293
# Format: binding
# condition_context: independent experiment 2; read-out: CDK4/D1 IC50
Would you please state pIC50, meaning minus log10 of the concentration in mol/L, as a bare number?

Observed pIC50 on CDK4/Cyclin D1 (Homo sapiens), entry COCCN1CCN(Cc2ccc(-c3n[nH]c4c3C(=O)c3c(NC(=O)NN5CCOCC5)cccc3-4)cc2)CC1 , equals 7.96

Test item CC(C)CC(=O)Nc1[nH]nc2c1CN(C(=O)C1CCN(C)CC1)C2(C)C ; CDK4/Cyclin D1 (Homo sapiens); reported pIC50 was 6.29

Value sought: pIC50, system CDK4/Cyclin D1 (Homo sapiens), item CN1C/C=C/CCOc2cccc(c2)-c2ccnc(n2)Nc2cccc(c2)C1 . Result: 6.82

* * *

# subject_of_test: CDK4/Cyclin D1 (Homo sapiens)
# assay_summary: NanoBRET live-cell target engagement, NanoLuc-CDK4/Cyclin D1 in HEK-293
# Type: binding
# condition_context: CDK4/D1; n=3 average ± SEM, n=2 average to 2 significant figures; read-out: IC50 (nM) Average*
I'd appreciate it if you could supply IC50 values for the items below.
Return type: number; implicit unit nM.

Quick note, IC50 for C[C@H]1CC[C@H](n2c3cnccc3c3cnc(Nc4ccc5c(n4)CCN(C(=O)CO)C5)nc32)CC1 [AMG 925] landed at 6

Lab note: CC(C)c1cnn2c(NCc3ccccc3)cc(N[C@@H](CO)[C@H](O)CO)nc12 [BS-194] gave IC50 of 520

The recorded IC50 for entry CNC1CCN(C(=O)c2ccc(Nc3ncc(F)c(-c4cnc(C)n4C(C)C)n3)cc2)C1 (stereo not drawn) [AZD5597] equals 7

* * *

Kindly supply the reported inhibition at 10 µM values for the records listed here.
# subject_of_test: CDK19/Cyclin C (Homo sapiens, UniProt Q9BWU1)
# Sequence (Q9BWU1 whole entry): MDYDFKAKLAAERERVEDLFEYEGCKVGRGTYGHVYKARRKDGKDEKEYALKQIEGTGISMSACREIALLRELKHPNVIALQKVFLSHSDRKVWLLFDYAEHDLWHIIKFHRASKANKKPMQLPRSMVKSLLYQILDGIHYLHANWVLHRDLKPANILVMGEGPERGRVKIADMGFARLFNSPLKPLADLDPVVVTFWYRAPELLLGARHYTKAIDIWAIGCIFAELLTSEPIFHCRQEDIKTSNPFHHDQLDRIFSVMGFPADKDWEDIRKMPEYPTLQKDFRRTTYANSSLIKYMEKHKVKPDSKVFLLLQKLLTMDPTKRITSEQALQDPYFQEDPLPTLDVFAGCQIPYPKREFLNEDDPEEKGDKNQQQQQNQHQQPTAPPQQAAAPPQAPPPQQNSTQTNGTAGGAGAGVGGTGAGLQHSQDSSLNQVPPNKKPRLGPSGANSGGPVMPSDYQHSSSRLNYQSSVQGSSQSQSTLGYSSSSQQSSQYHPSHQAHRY
# Sequence (P24863 whole entry partner): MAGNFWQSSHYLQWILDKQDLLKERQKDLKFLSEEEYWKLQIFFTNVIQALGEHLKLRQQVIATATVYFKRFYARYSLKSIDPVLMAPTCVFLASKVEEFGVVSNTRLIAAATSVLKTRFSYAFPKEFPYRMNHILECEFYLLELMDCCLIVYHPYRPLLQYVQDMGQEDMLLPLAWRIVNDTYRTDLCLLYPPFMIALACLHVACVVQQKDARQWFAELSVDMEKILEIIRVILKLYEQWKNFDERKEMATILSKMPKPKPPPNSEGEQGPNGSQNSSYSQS
# assay_summary: NanoBRET live-cell target engagement, NanoLuc-CDK19/Cyclin C in HEK-293
# condition_context: read-out: Inhibition at 10µM (%), CDK19/C; average

Please fill in: inhibition at 10 µM reported for COc1ccc(F)cc1-c1cc(NC(=O)C2CCCNC2)ncc1Cl (stereo not drawn) = 72.6%

Value of measured inhibition at 10 µM for the entry COc1ccccc1-c1cc(Nc2cccc(CS(N)(=O)=O)c2)ncn1 : 11.4%

Lab book: inhibition at 10 µM of CC(C)(C)c1nc(-c2cccc(NS(=O)(=O)c3c(F)cccc3F)c2F)c(-c2ccnc(N)n2)s1 noted as -6.6%

Entry under test: NS(=O)(=O)c1ccc(Nc2nc(OCC3CCCCC3)c3nc[nH]c3n2)cc1 . Its inhibition at 10 µM was 13%

Reported inhibition at 10 µM for CC(C)c1cnn2c(NCc3ccccc3)cc(NC[C@H]3CCNC[C@@H]3O)nc12 was 7.2%

Entry under test: CC(C)N1CCN(c2ccc(Nc3ncc4cc5n(c4n3)C3(CCCCC3)CNC5=O)nc2)CC1 . Its inhibition at 10 µM was 13%

* * *

Assignment: determine reported inhibition at 10 µM for the given molecules.
# subject_of_test: CDK1/Cyclin E1 (Homo sapiens)
# Sequence (P06493 whole entry): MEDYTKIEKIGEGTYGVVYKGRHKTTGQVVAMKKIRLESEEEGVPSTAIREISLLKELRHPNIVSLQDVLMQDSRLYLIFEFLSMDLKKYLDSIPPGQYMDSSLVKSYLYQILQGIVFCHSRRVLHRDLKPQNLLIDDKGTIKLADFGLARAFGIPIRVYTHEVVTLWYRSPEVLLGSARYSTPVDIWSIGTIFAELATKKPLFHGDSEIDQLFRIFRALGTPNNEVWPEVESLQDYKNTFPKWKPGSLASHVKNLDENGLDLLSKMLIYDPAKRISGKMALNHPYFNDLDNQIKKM
# Sequence (P24864 whole entry partner): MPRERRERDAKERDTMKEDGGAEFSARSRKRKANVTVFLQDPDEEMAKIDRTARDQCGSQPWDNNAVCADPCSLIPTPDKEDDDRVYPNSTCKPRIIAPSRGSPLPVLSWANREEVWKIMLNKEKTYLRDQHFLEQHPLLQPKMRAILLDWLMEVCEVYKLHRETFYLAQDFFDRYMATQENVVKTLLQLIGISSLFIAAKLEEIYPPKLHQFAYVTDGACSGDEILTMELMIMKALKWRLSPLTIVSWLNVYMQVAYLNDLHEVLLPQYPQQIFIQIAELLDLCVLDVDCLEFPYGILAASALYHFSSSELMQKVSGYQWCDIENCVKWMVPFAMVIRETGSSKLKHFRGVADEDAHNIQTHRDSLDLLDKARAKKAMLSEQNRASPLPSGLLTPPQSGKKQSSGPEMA
# assay_summary: NanoBRET live-cell target engagement, CDK1-NanoLuc/Cyclin E1 in HEK-293
# Type: binding
# condition_context: CDK1/E1; 10µM; read-out: Inhibition at 10µM (%) Replicate 2
Your answer should be a plain number; it is taken to be in %.

Value of inhibition at 10 µM reported for the molecule CCN1CCN(Cc2ccc(NC(=O)Nc3ccc(Oc4cc(NC)ncn4)cc3)cc2C(F)(F)F)CC1 [AST-487] is 90.6

// field: inhibition at 10 µM; key: COc1cc(F)ccc1-c1cc(Nc2cc(CS(C)(=N)=O)ccn2)ncc1F (stereo not shown) [BAY-1251152] ; value = 56.8

Form: molecule = Cc1ncc(-c2ccnc(Nc3ccc(S(C)(=O)=O)cc3)n2)n1C(C)C [AZD5438] ; inhibition at 10 µM = 78.3

Entry under test: COc1cc(F)ccc1-c1ncnc(Nc2cccc(C[S@](C)(=N)=O)c2)n1 [Atuveciclib] . Its inhibition at 10 µM was 13.8

Recorded inhibition at 10 µM (molecule C[C@H]1CC[C@H](n2c3cnccc3c3cnc(Nc4ccc5c(n4)CCN(C(=O)CO)C5)nc32)CC1 [AMG 925] ): 23.6

Notebook: CC(C)c1cnn2c(NCc3ccccc3)cc(NCCCCCCN)nc12 [BS-181] , inhibition at 10 µM read as 44.8

The value of inhibition at 10 µM measured for the molecule CCCCOc1c(C(=O)c2c(F)cc(C)cc2F)c[nH]c2nncc1-2 [BMS-265246] turned out to be 23.1
